Listed compounds paired with reported pIC50
molecular target: UniProtKB O00329; experiment: Cell-Based Assay; conditions: raji
pIC50: −log10 of the molar value.

// worked examples, pIC50 included
C[C@H](NC(=O)c1nc(-c2cccc(S(=O)(=O)N(C)C)c2)cnc1N)c1cc2cccc(Cl)c2c(=O)n1-c1ccccc1: 6.00 to 7.00
COc1cc(-c2cccc3cc([C@H](C)NC(=O)c4c(N)nn5cccnc45)n(-c4ccccc4)c(=O)c23)ccn1: > 7.00

Query: API: value(readout= pIC50, system= UniProtKB O00329, query= COc1cccc2cc([C@H](C)NC(=O)c3c(N)nn4cccnc34)n(-c3ccccc3)c(=O)c12 )
Result: 6.00 to 7.00

Query: Give pIC50 (UniProtKB O00329) of the following compound: CC(=O)Nc1cccc(-c2cccc3cc([C@H](C)NC(=O)c4c(N)nn5cccnc45)n(-c4ccccc4)c(=O)c23)c1
Result: > 7.00

Query: What is its pIC50 for UniProtKB O00329? Entry: C[C@H](NC(=O)c1nc(-c2cccc(S(=O)(=O)NC3CC3)c2)cnc1N)c1cc2cccc(Cl)c2c(=O)n1C
Result: > 7.00

Query: What pIC50 appears in the records for this compound with UniProtKB O00329? C[C@H](NC(=O)c1cncc2cccnc12)c1cc2cccc(Cl)c2c(=O)n1-c1ccc(F)cc1
Result: > 7.00

Query: Please provide the recorded pIC50 for C[C@H](NC(=O)c1c(N)nn2cccnc12)c1cc2cccc(Cl)c2c(=O)n1-c1cccc(F)c1 , tested on UniProtKB O00329.
Result: > 7.00

Query: What measured pIC50 is associated with C[C@H](NC(=O)c1cnc2cccnn12)c1cc2cccc(Cl)c2c(=O)n1-c1ccccc1 on UniProtKB O00329?
Result: 6.00 to 7.00

###

target: PIK3CD (Human); assay: Enzyme Assay
pIC50: −log10 of the molar value.
In this section, each of the compounds is paired with its reported pIC50.

Query: Form field: reported pIC50 of COC(=O)c1ncsc1-c1cccc2cc([C@H](C)NC(=O)c3c(N)nn4cccnc34)n(-c3ccccc3)c(=O)c12
Result: ≤ 5.00

Query: I am curious: what pIC50 value has been reported for CC(C)Oc1ccc(-c2cnc(N)c(C(=O)N[C@@H](C)c3cc4cccc(Cl)c4c(=O)n3-c3ccccc3)n2)cc1 ?
Result: ≤ 5.00

Query: Dear colleague, I am looking for the recorded pIC50 of the following compound: C[C@H](NC(=O)c1nc(-c2cncc(NS(C)(=O)=O)c2)cnc1N)c1cc2cccc(Cl)c2c(=O)n1C1CC1
Result: > 7.00

###

molecular target: PIK3CD (Human) (UniProt O00329); test: Cell-Based Assay; details: raji
Sequence (O00329 whole entry, looked up): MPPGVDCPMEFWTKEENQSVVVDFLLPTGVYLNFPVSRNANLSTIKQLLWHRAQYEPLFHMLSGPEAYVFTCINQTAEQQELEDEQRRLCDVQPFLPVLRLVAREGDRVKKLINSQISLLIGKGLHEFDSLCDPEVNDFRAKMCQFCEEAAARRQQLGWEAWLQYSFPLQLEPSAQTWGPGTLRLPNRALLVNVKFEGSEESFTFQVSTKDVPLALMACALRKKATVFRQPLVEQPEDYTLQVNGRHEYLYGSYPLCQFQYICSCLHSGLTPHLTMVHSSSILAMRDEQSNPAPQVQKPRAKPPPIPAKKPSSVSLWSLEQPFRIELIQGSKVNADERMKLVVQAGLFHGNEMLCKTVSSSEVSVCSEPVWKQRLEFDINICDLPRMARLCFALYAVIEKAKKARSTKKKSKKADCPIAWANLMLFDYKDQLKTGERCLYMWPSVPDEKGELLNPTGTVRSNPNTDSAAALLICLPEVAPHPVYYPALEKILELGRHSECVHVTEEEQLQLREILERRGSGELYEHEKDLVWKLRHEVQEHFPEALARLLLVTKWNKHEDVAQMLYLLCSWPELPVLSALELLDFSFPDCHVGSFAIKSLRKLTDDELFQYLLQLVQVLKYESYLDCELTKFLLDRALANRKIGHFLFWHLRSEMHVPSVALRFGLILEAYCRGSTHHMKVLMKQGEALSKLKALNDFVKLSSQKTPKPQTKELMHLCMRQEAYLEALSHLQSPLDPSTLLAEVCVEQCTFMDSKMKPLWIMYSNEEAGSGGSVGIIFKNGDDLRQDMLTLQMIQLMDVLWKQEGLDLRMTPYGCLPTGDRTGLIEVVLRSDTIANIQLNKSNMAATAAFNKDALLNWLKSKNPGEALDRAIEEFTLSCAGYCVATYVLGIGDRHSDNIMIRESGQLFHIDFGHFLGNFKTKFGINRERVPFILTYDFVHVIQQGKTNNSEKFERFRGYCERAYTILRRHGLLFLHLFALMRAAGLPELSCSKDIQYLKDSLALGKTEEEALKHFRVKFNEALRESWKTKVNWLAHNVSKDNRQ
pIC50: −log10 of the molar value.
Parameter: pIC50. Scope: all listed entries.

C[C@H](NC(=O)c1c(N)nn2cccnc12)c1cc2cccc(C#CCNS(C)(=O)=O)c2c(=O)n1-c1ccccc1: 6.00 to 7.00
C[C@H](NC(=O)c1cnn2cccnc12)c1cc2cccc(C#CCNC(=O)[C@@H]3CCCO3)c2c(=O)n1-c1ccccc1: > 7.00
COc1cncc(-c2cccc3cc([C@H](C)NC(=O)c4c(N)nn5cccnc45)n(-c4ccccc4)c(=O)c23)c1: > 7.00

Query: Could you tell me which pIC50 is on file for C[C@H](NC(=O)c1nc(-c2cccc(S(C)(=O)=O)c2)c(N)nc1N)c1cc2cccc(Cl)c2c(=O)n1-c1ccccc1 ?
Result: > 7.00

Query: # input compound: Cc1cnc(N)c(C(=O)N[C@@H](C)c2cc3cccc(Cl)c3c(=O)n2-c2ccccc2)n1 ; wanted: its pIC50
Result: 6.00 to 7.00

Query: What measured pIC50 goes with CNc1cccc2cc([C@H](C)NC(=O)c3c(N)nn4cccnc34)n(-c3ccccc3)c(=O)c12 ?
Result: 6.00 to 7.00

Query: Quick check: pIC50 of C[C@H](NC(=O)c1c(N)nn2cccnc12)c1cc2cccc(-c3cncc(NS(C)(=O)=O)c3)c2c(=O)n1-c1ccccc1 ?
Result: > 7.00

Query: Endpoint output: pIC50 of C[C@H](NC(=O)c1c(N)nn2cccnc12)c1cc2cccc(Cl)c2c(=O)n1CCN(C)C . Value?
Result: > 7.00

Query: Need pIC50, item C[C@H](NC(=O)c1c(N)nn2cccnc12)c1cc2cccc(Cl)c2c(=O)n1CC(O)CO (stereo partly drawn)
Result: > 7.00

Query: Given C[C@H](NC(=O)c1c(N)nn2cccnc12)c1cc2cccc(CO)c2c(=O)n1-c1ccccc1 , state its recorded pIC50.
Result: 6.00 to 7.00

Query: Which measured pIC50 value corresponds to C[C@H](NC(=O)c1c(N)ncc2cccnc12)c1cc2cccc(N3CCOCC3)c2c(=O)n1-c1ccccc1 ?
Result: > 7.00

Query: Would you kindly share the measured pIC50 for C[C@H](NC(=O)c1c(N)nn2cccnc12)c1cc2cccc(Cl)c2c(=O)n1C1CCCCC1 ?
Result: > 7.00

Query: Consider the compound C[C@H](NC(=O)c1nccnc1N)c1cc2cccc(-c3cccnc3)c2c(=O)n1-c1ccccc1 and give its measured pIC50.
Result: > 7.00

Query: Given the compound C[C@H](NC(=O)c1cnn2cccnc12)c1cc2cccc(Cl)c2c(=O)n1-c1ccc(F)cc1 , what is its reported pIC50?
Result: 6.00 to 7.00

Query: Look at this compound and give its reported pIC50. C[C@H](NC(=O)c1c(N)nn2cccnc12)c1c(Br)c2cccc(Cl)c2c(=O)n1-c1ccccc1
Result: > 7.00

Query: # query: pIC50 of entry C[C@H](NC(=O)c1c(N)nn2cccnc12)c1cc2cccc(C#CCCN)c2c(=O)n1-c1ccccc1
Result: 6.00 to 7.00

Query: Value lookup for pIC50; key = COc1cc(-c2cccc3cc(C(C)NC(=O)c4c(N)nn5cccnc45)c(-c4ccccc4)nc23)ccn1 (stereo not drawn)
Result: 6.00 to 7.00

###

target: PIK3CD (Human) (UniProt O00329); assay: Cell-Based Assay; settings: raji
pIC50: −log10 of the molar value.
Recorded pIC50 for the following molecules

C[C@H](NC(=O)c1c(N)nn2cccnc12)c1cc2cccc(Cl)c2c(=O)n1-c1ccccc1: > 7.00
C[C@H](NC(=O)c1c(N)nn2cccnc12)c1cc2cccc(O)c2c(=O)n1-c1ccccc1: 6.00 to 7.00
CC(C)Oc1ccc(-c2cnc(N)c(C(=O)N[C@@H](C)c3cc4cccc(Cl)c4c(=O)n3-c3ccccc3)n2)cc1: ≤ 5.00

Query: Which measured pIC50 value corresponds to C[C@H](NC(=O)c1nccnc1N)c1cc2cccc(-c3cnn(C)c3)c2c(=O)n1-c1ccccc1 ?
Result: > 7.00

Query: Tell me the measured pIC50 of C[C@H](NC(=O)c1c(N)nn2cccnc12)c1cc2cccc(NCC(F)(F)F)c2c(=O)n1-c1ccccc1 , please.
Result: 6.00 to 7.00

Query: What value of pIC50 has been recorded for this entry: C[C@H](NC(=O)c1c(N)nn2cccnc12)c1cc2cccc(-c3cncs3)c2c(=O)n1-c1ccccc1
Result: > 7.00

Query: What does the record list as pIC50 for C[C@H](NC(=O)c1c(N)nn2cccnc12)c1cc2cccc(Cl)c2c(=O)n1-c1ccc(F)c(F)c1 ?
Result: 6.00 to 7.00

Query: # lookup: pIC50 of CC(C)Oc1ccc(-c2cnc(N)c(C(=O)N[C@@H](C)c3cc4cccc(Cl)c4c(=O)n3-c3ccccc3)n2)cc1Cl
Result: ≤ 5.00

###

Below are compounds with their IC50 as measured on PIK3CB (Human) (UniProt P42338).
Sequence (P42338 whole entry, looked up): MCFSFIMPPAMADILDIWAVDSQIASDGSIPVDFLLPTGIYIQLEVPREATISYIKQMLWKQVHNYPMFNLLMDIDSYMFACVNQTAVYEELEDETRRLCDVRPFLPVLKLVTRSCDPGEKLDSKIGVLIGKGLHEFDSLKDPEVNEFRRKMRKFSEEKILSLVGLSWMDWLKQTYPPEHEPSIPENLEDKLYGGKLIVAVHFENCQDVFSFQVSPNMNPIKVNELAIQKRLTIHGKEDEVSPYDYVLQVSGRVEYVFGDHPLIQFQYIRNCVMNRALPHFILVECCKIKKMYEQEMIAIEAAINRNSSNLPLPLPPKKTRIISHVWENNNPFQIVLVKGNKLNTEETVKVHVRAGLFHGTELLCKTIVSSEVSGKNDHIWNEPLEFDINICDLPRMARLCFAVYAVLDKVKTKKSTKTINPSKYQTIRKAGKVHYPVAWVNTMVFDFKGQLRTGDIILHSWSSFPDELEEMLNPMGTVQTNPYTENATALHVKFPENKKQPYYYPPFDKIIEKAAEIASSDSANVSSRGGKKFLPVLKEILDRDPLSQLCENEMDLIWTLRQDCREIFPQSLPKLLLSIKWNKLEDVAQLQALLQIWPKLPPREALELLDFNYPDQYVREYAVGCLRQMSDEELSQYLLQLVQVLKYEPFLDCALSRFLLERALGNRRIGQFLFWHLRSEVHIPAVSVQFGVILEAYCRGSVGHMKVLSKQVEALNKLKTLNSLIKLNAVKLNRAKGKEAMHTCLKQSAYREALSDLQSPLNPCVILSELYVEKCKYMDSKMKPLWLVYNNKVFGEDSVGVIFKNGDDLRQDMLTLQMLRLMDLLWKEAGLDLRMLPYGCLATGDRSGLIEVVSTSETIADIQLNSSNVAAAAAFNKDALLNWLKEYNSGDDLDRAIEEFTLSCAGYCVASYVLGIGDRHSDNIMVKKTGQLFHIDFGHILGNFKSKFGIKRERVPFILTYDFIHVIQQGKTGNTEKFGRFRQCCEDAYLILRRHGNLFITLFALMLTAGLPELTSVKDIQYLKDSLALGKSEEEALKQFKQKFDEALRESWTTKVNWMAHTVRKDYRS

Solved entries (count: 2):
COc1ccc(-c2cnc(N)c(C(=O)N[C@@H](C)c3cc4cccc(Cl)c4c(=O)n3-c3ccccc3)n2)cc1NS(C)(=O)=O: 100 to 1000 nM
C[C@H](NC(=O)c1c(N)nn2cccnc12)c1cc2cccc(Cl)c2c(=O)n1-c1ccccc1: 100 to 1000 nM

Query: Lab note: need IC50 for C[C@H](NC(=O)c1c(N)nn2cccnc12)c1cc2cccc(CN(C)C)c2c(=O)n1-c1ccccc1 on PIK3CB (Human) (UniProt P42338), anyone have it?
Result: ≥ 10000 nM

Query: Give PIK3CB (Human) (UniProt P42338) IC50 for COc1cc(-c2cccc3cc([C@H](C)NC(=O)c4c(N)nn5cccnc45)n(-c4cccc(F)c4)c(=O)c23)ccn1
Result: ≥ 10000 nM

Query: IC50 of C[C@H](NC(=O)c1c(N)nn2cccnc12)c1cc2cccc(Cl)c2c(=O)n1-c1cccc(F)c1 on PIK3CB (Human) (UniProt P42338)?
Result: 100 to 1000 nM

Query: Lab request: please report IC50 under test system PIK3CB (Human) (UniProt P42338) for COc1cc(-c2cccc3cc([C@H](C)NC(=O)c4ncc(C)nc4N)n(-c4ccccc4)c(=O)c23)ccn1
Result: ≥ 10000 nM

Query: Provide value of IC50 for this record tested with PIK3CB (Human) (UniProt P42338): CC(C)Oc1ccc(-c2cnc(N)c(C(=O)N[C@@H](C)c3cc4cccc(Cl)c4c(=O)n3-c3ccccc3)n2)cn1
Result: ≥ 10000 nM

Query: Lab note: need IC50 with PIK3CB (Human) (UniProt P42338) for entry CNc1cccc2cc([C@H](C)NC(=O)c3c(N)nn4cccnc34)n(-c3ccccc3)c(=O)c12 , please look it up.
Result: ≥ 10000 nM
